# target_system: Jack bean (JB) urease (Canavalia ensiformis)
# Construct: purchased Sigma-Aldrich (USA)
# Sequence (P07374 whole entry, looked up): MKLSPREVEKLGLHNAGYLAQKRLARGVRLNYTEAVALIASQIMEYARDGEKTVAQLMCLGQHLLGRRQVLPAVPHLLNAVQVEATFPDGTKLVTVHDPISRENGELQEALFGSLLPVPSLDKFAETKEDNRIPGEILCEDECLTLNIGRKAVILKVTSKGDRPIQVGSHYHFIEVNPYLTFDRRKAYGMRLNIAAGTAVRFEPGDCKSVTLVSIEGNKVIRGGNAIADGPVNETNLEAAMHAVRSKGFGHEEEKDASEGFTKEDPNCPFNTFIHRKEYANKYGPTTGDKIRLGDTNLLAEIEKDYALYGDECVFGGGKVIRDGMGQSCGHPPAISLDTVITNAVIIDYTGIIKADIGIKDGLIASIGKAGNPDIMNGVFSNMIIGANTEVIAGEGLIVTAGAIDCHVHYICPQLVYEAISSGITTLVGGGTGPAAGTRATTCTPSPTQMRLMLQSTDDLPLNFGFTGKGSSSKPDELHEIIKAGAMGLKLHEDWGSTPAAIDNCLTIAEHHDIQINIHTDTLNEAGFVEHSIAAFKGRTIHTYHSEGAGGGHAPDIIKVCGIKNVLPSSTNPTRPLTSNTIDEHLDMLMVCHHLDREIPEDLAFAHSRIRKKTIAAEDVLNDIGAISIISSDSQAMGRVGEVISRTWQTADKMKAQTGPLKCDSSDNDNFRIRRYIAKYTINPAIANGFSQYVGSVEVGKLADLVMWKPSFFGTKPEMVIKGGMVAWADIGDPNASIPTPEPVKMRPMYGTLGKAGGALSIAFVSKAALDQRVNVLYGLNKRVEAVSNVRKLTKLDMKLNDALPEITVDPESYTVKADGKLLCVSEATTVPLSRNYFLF
# protocol_summary: Urease inhibition, modified Berthelot spectrophotometric method
# Format: biochemical
# run_parameters: Jack bean urease; mean ± standard error of the mean, at least three experiments; read-out: IC50 against urease
property_label: log10 IC50 (log10 of the value in µM)

- compound: "CN1C(=O)C(=CN/N=C/c2cccc(Br)c2)C(=O)N(C)C1=O"
  property_label: "log10 IC50"
  value_observed: 0.56
- compound: "CN1C(=O)C(=CN/N=C/c2cc(Cl)ccc2[N+](=O)[O-])C(=O)N(C)C1=O"
  property_label: "log10 IC50"
  value_observed: 0.13
- compound: "CN1C(=O)C(=CN/N=C/c2cccc(Cl)c2Cl)C(=O)N(C)C1=O"
  property_label: "log10 IC50"
  value_observed: 0.66
- compound: "NC(N)=S [Thiourea, reference compound]"
  property_label: "log10 IC50"
  value_observed: 1.36
- compound: "CN1C(=O)C(=CN/N=C/c2ccc([N+](=O)[O-])cc2)C(=O)N(C)C1=O"
  property_label: "log10 IC50"
  value_observed: 0.12
- compound: "CN1C(=O)C(=CN/N=C/c2ccc(Cl)cc2)C(=O)N(C)C1=O"
  property_label: "log10 IC50"
  value_observed: 0.55
- compound: "CN1C(=O)C(=CN/N=C/c2ccccc2O)C(=O)N(C)C1=O"
  property_label: "log10 IC50"
  value_observed: 0.49
- compound: "CN1C(=O)C(=CN/N=C/c2ccc(Cl)s2)C(=O)N(C)C1=O"
  property_label: "log10 IC50"
  value_observed: 0.66
- compound: "NC(=O)NO [Hydroxyurea, reference compound]"
  property_label: "log10 IC50"
  value_observed: 2.00
- compound: "CN1C(=O)C(=CN/N=C/c2ccccc2)C(=O)N(C)C1=O"
  property_label: "log10 IC50"
  value_observed: 0.65
- compound: "CN1C(=O)C(=CN/N=C/c2ccc(O)cc2O)C(=O)N(C)C1=O"
  property_label: "log10 IC50"
  value_observed: 0.08
